assay.explanation: physchem
experimental.conditions: water
metric: solubility (µg/mL)

CN[C@@H]1CN(c2ccc3c(=O)c(C(=O)O)cn(-c4nccs4)c3n2)C[C@H]1OC.Cl (relative stereo)
2900

###

Tested on: murine P388 lymphocytic leukemia cells
assay.explanation: Increases in life span of mice implanted with murine P388 lymphocytic leukemia cells
Assay type: in vivo, SLC: BDF1 mice
experimental.conditions: Mus musculus, P388, ip, 720 h, ip, 3.13 mg/kg, days 1 and 5, in solution; read-out: ILS (%) (in solution)
metric: ILS at 3.13 mg/kg (%)

CO[C@@H]1CN(c2ccc3c(=O)c(C(=O)O)cn(-c4nccs4)c3n2)C[C@H]1N (relative stereo) [Compound 2]
88
CNC1CCN(c2ccc3c(=O)c(C(=O)O)cn(-c4nccs4)c3n2)C1 (stereo not drawn) [Compound 6]
100
CN[C@@H]1CN(c2ccc3c(=O)c(C(=O)O)cn(-c4nccs4)c3n2)C[C@H]1OC.Cl (relative stereo) [Compound 1-1, hydrochloride]
100

###

assay.explanation: Solubility
experimental.conditions: water
Readings of solubility for the listed compounds
metric: solubility (mg/mL)

Cl.NC1CCN(c2ccc3c(=O)c(C(=O)O)cn(-c4nccs4)c3n2)C1 (stereo not drawn)
8.3
C[C@H](N)C(=O)NC1CCN(c2ccc3c(=O)c(C(=O)O)cn(-c4nccs4)c3n2)C1.Cl (stereo partly drawn)
79.4

###

Test system: murine P388 lymphocytic leukemia cells
assay.explanation: Increases in life span of mice implanted with murine P388 lymphocytic leukemia cells
Type: in vivo, SLC: BDF1 mice
experimental.conditions: Mus musculus, P388, ip, 720 h, ip, 50 mg/kg, days 1 and 5, in solution; read-out: ILS (%) (in solution)
metric: ILS at 50 mg/kg

CN[C@@H]1CN(c2ccc3c(=O)c(C(=O)O)cn(-c4nccs4)c3n2)C[C@H]1OC.Cl (relative stereo) [Compound 1-1, hydrochloride]
> 275%
CC1(N)CCN(c2ccc3c(=O)c(C(=O)O)cn(-c4nccs4)c3n2)C1 (centres unmarked) [Compound 10]
> 275%
CN[C@@H]1CN(c2ccc3c(=O)c(C(=O)O)cn(-c4nccs4)c3n2)C[C@H]1OC.Cl (single isomer, unassigned) [Compound 1-3, hydrochloride]
> 275%
CO[C@@H]1CN(c2ccc3c(=O)c(C(=O)O)cn(-c4nccs4)c3n2)C[C@H]1N (relative stereo) [Compound 2]
> 275%
O=C(O)c1cn(-c2nccs2)c2nc(N3CCCC3)c(F)cc2c1=O [Compound A, reference compound]
38%

###

Test system: murine P388 lymphocytic leukemia cells
assay.explanation: Increases in life span of mice implanted with murine P388 lymphocytic leukemia cells
Format: in vivo, SLC: BDF1 mice
experimental.conditions: Mus musculus, P388, ip, 720 h, ip, 3.13 mg/kg, days 1 and 5, in suspension; read-out: ILS (%) (in suspension)
The following compounds are shown together with reported ILS at 3.13 mg/kg values.
metric: ILS at 3.13 mg/kg (%)

Cl.NC1CCN(c2ccc3c(=O)c(C(=O)O)cn(-c4nc(F)cs4)c3n2)C1 (stereo not shown) [Compound 8, hydrochloride]
175
NC1CCN(c2ncc3c(=O)c(C(=O)O)cn(-c4nccs4)c3n2)C1 (stereo not shown)
63
CN[C@@H]1CN(c2ccc3c(=O)c(C(=O)O)cn(-c4nccs4)c3n2)C[C@H]1C (relative stereo)
88
C[C@@H]1CN(c2ccc3c(=O)c(C(=O)O)cn(-c4nccs4)c3n2)C[C@H]1N (relative stereo)
75
CN[C@@H]1CN(c2cc(N)c3c(=O)c(C(=O)O)cn(-c4nccs4)c3n2)C[C@H]1OC (relative stereo)
88
CNC1CCN(c2ccc3c(=O)c(C(=O)O)cn(-c4nccs4)c3n2)C1 (stereo not shown)
100
CN[C@@H]1CN(c2ccc3c(=O)c(C=O)cn(-c4nccs4)c3n2)C[C@H]1OC.Cl (relative stereo) [Compound 11, hydrochloride]
88
Cl.NC1CCN(c2ccc3c(=O)c(C(=O)O)cn(-c4nccs4)c3n2)C1 (stereo not shown) [Compound 3, hydrochloride]
88
Cl.Nc1cc(N2CCC(N)C2)nc2c1c(=O)c(C(=O)O)cn2-c1nccs1 (stereo not shown) [Compound 9, hydrochloride]
100
CN[C@@H]1CN(c2ccc3c(=O)c(C(=O)O)cn(-c4nccs4)c3n2)C[C@@H]1OC (relative stereo)
25
CC1(N)CCN(c2ccc3c(=O)c(C(=O)O)cn(-c4nccs4)c3n2)C1 (stereo not shown)
50
CN[C@@H]1CN(c2ccc3c(=O)c(C(=O)O)cn(-c4nc(F)cs4)c3n2)C[C@H]1OC (relative stereo)
38
CNC1(C)CCN(c2ccc3c(=O)c(C(=O)O)cn(-c4nccs4)c3n2)C1 (stereo not shown)
63
CCN[C@@H]1CN(c2ccc3c(=O)c(C(=O)O)cn(-c4nccs4)c3n2)C[C@H]1OC (relative stereo)
25
CN[C@@H]1CN(c2ccc3c(=O)c(C(=O)O)cn(-c4nccs4)c3n2)C[C@H]1OC.Cl (relative stereo) [Compound 1-1, hydrochloride]
88
CO[C@@H]1CN(c2ccc3c(=O)c(C(=O)O)cn(-c4nccs4)c3n2)C[C@H]1N (relative stereo)
63
